TARGET SYSTEM: UniProt Q07817
Sequence (Q07817 whole entry): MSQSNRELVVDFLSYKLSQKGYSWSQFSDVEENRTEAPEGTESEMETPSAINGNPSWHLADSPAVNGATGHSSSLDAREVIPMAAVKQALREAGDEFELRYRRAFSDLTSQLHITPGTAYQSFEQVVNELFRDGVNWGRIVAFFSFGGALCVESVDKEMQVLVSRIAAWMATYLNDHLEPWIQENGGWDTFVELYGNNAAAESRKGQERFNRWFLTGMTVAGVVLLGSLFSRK
REPORTED METRIC: Ki

// batch mode: one Ki value per listed entry
1. Cc1cc2c(C(C)C)c(O)c(O)c(C=O)c2c(O)c1-c1c(C)cc2c(C(C)C)c(O)c(O)c(C=O)c2c1O
2. COc1ccccc1N1C(=O)/C(=C/c2cccc(OCc3ccc(C(=O)O)cc3)c2)SC1=S
3. COc1ccccc1N1C(=O)/C(=C/c2ccc(OCc3ccc(C(=O)O)cc3)cc2)SC1=S

1: 0.64 µM; 2: > 10 µM; 3: > 10 µM

----------
Measured Ki on Apoptosis regulator Bcl-2 (Homo sapiens, UniProt P10415) follows.
Sequence (P10415 whole entry): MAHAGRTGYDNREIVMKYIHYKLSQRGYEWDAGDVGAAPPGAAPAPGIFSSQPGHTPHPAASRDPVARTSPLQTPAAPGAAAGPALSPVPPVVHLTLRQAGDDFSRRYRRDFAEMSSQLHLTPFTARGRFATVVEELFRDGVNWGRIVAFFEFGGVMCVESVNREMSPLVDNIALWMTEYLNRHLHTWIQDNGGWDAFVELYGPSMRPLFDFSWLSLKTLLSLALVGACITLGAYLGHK

// solved cases for Ki follow
O=C(COc1ccc(/C=C2\SC(=S)N(c3ccc([N+](=O)[O-])cc3)C2=O)cc1)Nc1ccc(C(=O)O)cc1 :: > 10 µM
O=C(O)c1ccc(COc2ccc(/C=C3\SC(=S)N(c4c(F)cccc4F)C3=O)cc2)cc1 :: > 10 µM

# query: Ki of entry O=C(Nc1ccc(O)c(C(=O)O)c1)c1ccc(/C=C2\SC(=S)N(c3ccccc3)C2=O)cc1 > 10 µM
